experiment: in vivo; settings: male, Sprague-Dawley, rat, iv;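 further: rats fasted overnight before dosing and fed about 4 h afterwards, with serial blood sampled through a carotid artery catheter at each time point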
# AUC(0-inf) values compiled below
Response body: numeric value in µM·h, unit text excluded.

Some solved cases for reference:
CC(=O)Nc1ccc(O[C@H]2O[C@H](C)[C@@H](O)[C@H](O)[C@@H]2O)cc1 | 44.1
CC(=O)Nc1ccc(O[C@H]2O[C@H](COC(=O)CCC(=O)O)[C@@H](O)[C@H](O)[C@@H]2O)cc1 | 51.9

So what's the measured AUC(0-inf) for this one? CC(=O)Nc1ccc(O[C@H]2O[C@H](CO)[C@@H](O[C@H]3O[C@H](CO)[C@@H](O)[C@H](O)[C@H]3O)[C@H](O)[C@@H]2O)cc1 [compound 5, 1-(4-acetaminophenoxy) 2-epi maltose]
1.69

Follow-up item: CCCC(=O)OC[C@H]1O[C@H](Oc2ccc(NC(C)=O)cc2)[C@@H](O)[C@@H](O)[C@@H]1O
3.31

Follow-up item: CC(=O)Nc1ccc(O[C@H]2O[C@H](COC(=O)C(C)C)[C@@H](O)[C@H](O)[C@@H]2O)cc1
3.68

Follow-up item: CC(=O)Nc1ccc(O[C@H]2O[C@H](COC(C)=O)[C@@H](O)[C@H](O)[C@@H]2O)cc1
14.2

Follow-up item: CC(=O)Nc1ccc(O[C@H]2O[C@H](CO)[C@@H](O)[C@H](O)[C@@H]2O)cc1
44.9
